molecular target: … (SEQ ID NO: 1) HLA-A*24 complex, oxidised form of the peptide (human); test: SPR, soluble TCR over immobilised biotinylated pHLA, equilibrium, 25 C
Each entry below lists one item and its recorded pKd value.
Scale: pKd equals -log10([C]), with [C] in mol/L.

{"columns": ["BINDER", "RESULT_NUMBER"],
 "data": [
  ["S10 (TCR) alpha TRAV27 CDR3: GAIWSTLGRLY beta TRBV5-6 CDR3: SSFKGVNQPQH", 3.71]
]}

# context switch: different binder, same pKd
[ask] Entry S6 (TCR) alpha TRAV21 CDR3: AVPNPSARQLT beta TRBV7-9 CDR3: ASSLEGQGVEQF : reported pKd = ?
[reply] 3.62

All values here come from patent US20250026829A1.
